# System: T1, BCMA on RPMI8226 cells (UniProt Q02223 1-184, limits assumed)
# T1 construct: whole, on cells
# T1 sequence (looked up): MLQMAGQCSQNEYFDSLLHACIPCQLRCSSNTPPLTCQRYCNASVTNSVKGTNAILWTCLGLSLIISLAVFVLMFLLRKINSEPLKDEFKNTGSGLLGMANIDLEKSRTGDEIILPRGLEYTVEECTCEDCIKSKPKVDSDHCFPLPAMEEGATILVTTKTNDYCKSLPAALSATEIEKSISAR
# Run description: FACS on RPMI8226 cells; further: test concentration or dose not given here
Outcome measure: MFI

NBL507-A2L1-P1R2-1H1-(275)-PME207-SEQF_G11 (VHH, purified VHH) VHH: QVQLVESGGGLVHPGGSLRLACAASERILSFNVMGWYRQAPGQQREVVATITSVGRTYYADSVKGRFTIFKDNGKNTYLQMSSLKPEDTAVYYCKAVTVGDVDTEYWGQGTQVTVSS :: 532 MFI

Challenge: # return recorded MFI for entry NBL507-A2L1-P1R2-1C1-(273)-PME207-SEQF_E11 (VHH, purified VHH) VHH: QVQLVESGGGLVHPGGSLRLDCAVSERIASFNVMGWYRQAPGQQREVVATITSVGRTYYADSVKGRFTIAKDNDKNTYLQMNSLKPEDTAVYYCKAVIVGTYDTEYWGQGTLVTVSS
Response given: 764 MFI

Challenge: # return recorded MFI for entry NBL507-A1L1-P1R2-1B6-(31)-PME207-SEQF_G04 (VHH, purified VHH) VHH: QVQLVESGGGLVQPGGSLRLSCAASGFTFSPSAMSWARQAPGKGLEWVSGIYSDGSTYYRDSVKGRFTISRDNARNMVYLQMNSLKPEDTAVYYCALGAMREGVYSDLLGQGTQVTVSS
Response given: 864 MFI
